Target Entity: STK3 (human)
Test Protocol: radiometric filter-binding kinase assay
Assay Context: compound 100.0 µM; ATP 20 µM
Quantity Measured: inhibition (%)
Give just the number in %; leave the unit off.

Example molecules with recorded inhibition:
Entry Smiles | Measurement Unit | inhibition
CC(C)(C)Nc1c(C2CC2)nc2[nH]cnn12 | % | 0
Cc1cccc(C)c1-c1cn2nc(N)nc2cn1 | % | 9

Input line: State its inhibition on STK3 (human): CC(=O)Nc1nc2cnc(-c3ccccc3)cn2n1
Output line: 0

---

Target Entity: RPS6KA3 KD1 KD2 (human) (UniProt P51812)
Sequence (P51812 whole entry, looked up): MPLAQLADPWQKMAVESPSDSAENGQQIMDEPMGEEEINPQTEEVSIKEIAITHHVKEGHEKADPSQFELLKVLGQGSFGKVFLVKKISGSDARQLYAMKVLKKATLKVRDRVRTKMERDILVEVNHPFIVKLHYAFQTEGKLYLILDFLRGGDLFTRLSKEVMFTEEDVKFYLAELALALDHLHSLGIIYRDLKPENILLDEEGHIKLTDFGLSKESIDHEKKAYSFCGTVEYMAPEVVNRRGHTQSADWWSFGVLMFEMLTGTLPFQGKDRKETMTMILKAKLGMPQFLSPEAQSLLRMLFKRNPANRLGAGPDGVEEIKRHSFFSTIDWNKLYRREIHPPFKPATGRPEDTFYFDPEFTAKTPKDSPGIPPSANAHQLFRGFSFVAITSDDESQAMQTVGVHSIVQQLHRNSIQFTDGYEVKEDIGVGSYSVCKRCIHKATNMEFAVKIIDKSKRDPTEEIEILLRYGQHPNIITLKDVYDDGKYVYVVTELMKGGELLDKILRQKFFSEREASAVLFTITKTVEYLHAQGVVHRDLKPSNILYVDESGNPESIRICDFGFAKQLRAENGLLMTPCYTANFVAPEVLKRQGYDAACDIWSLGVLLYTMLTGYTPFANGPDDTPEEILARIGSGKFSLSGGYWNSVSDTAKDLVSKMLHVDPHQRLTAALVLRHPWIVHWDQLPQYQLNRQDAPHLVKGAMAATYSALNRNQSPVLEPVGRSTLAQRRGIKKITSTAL
Test Protocol: radiometric filter-binding kinase assay
Assay Context: compound 100.0 µM; ATP 50 µM
Quantity Measured: inhibition (%)
Give just the number in %; leave the unit off.

Example compounds with recorded inhibition:
Compound | Measurement Unit | inhibition
COc1ccc(NC(=S)Nc2cnc3[nH]cnn3c2=O)cn1 | % | 47
CC(C)(C)Nc1c(C2CC2)nc2[nH]cnn12 | % | 13
O=C(c1cccc(-c2cc3c(=O)[nH]cnc3s2)c1)N1CCOCC1 | % | 39

Input line: Record request: inhibition value, item Cc1cccc(C)c1-c1cn2nc(N)nc2cn1
Output line: 42

Input line: Record request: inhibition value, item CC(C)(C)Nc1c(COCc2ccccc2)nc2[nH]cnn12
Output line: 48

Input line: Record request: inhibition value, item CC1CN(c2nc3ccccn3c(=O)c2N)CC(C)O1 (configuration not stated)
Output line: 84

Input line: Record request: inhibition value, item O=c1c(NC(=S)NCc2ccccc2)cnc2[nH]ccn12
Output line: 20

Input line: Record request: inhibition value, item O=C(Nc1cnc2[nH]ccn2c1=O)c1ccccc1
Output line: 10

Input line: Record request: inhibition value, item CC(=O)Nc1nc2cnc(-c3c(C)cccc3C)cn2n1
Output line: 23

Input line: Record request: inhibition value, item O=C(Nc1cnc2[nH]cnn2c1=O)c1ccccc1
Output line: 11

Input line: Record request: inhibition value, item Nc1nc2cnc(-c3ccccc3)cn2n1
Output line: 51

Input line: Record request: inhibition value, item O=c1cc(-c2ccccc2F)nc2[nH]ccn12
Output line: 25

meta.source: the kinase profiling compilation of Christmann-Franck et al. (2016)
